# Fold difference (relative to G6.31) values compiled below
Target under test: T1, human VEGF (hVEGF) (human, UniProt P15692 181-395)
T1 construct: also called VEGF-A
T1 sequence: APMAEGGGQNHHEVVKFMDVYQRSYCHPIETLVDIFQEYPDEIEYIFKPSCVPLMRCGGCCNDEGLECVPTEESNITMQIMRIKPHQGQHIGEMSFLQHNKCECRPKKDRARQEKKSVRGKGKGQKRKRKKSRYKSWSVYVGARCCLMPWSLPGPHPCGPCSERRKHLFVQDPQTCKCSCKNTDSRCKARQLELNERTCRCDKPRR
Method: SPR single-cycle
Give a bare numeral; the unit fold is implied.

Recorded results for 2 binders are shown here.
binder="G6.31 HC-A60M (Fab, name in Kabat numbering, V domains shown, Fab) VH: EVQLVESGGGLVQPGGSLRLSCAASGFTISDYWIHWVRQAPGKGLEWVAGITPAGGYTYYMDSVKGRFTISADTSKNTAYLQMNSLRAEDTAVYYCARFVFFLPYAMDYWGQGTLVTVSS VL: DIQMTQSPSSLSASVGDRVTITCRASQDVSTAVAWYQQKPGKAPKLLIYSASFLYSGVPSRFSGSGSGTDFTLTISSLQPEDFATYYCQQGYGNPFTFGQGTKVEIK" unit_name=fold meas_value=0.8
binder="G6.31 LC-Q89N (Fab, V domains shown, Fab) VH: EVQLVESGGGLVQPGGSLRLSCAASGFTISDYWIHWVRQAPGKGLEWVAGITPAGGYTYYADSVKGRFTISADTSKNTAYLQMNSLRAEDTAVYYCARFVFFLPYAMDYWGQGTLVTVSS VL: DIQMTQSPSSLSASVGDRVTITCRASQDVSTAVAWYQQKPGKAPKLLIYSASFLYSGVPSRFSGSGSGTDFTLTISSLQPEDFATYYCNQGYGNPFTFGQGTKVEIK" unit_name=fold meas_value=3.5

Task item: Complete the entry with Fold difference (relative to G6.31) for G6.31 HC-A40E (Fab, name in Kabat numbering, V domains shown, Fab) VH: EVQLVESGGGLVQPGGSLRLSCAASGFTISDYWIHWVRQEPGKGLEWVAGITPAGGYTYYADSVKGRFTISADTSKNTAYLQMNSLRAEDTAVYYCARFVFFLPYAMDYWGQGTLVTVSS VL: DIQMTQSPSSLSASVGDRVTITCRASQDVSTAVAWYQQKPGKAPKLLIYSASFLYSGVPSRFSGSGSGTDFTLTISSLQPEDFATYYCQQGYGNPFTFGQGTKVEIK
Reply: 3.8

// data source = patent US20210115124A1
